Cited source for all entries: paper PMC12677699

System: A. baumannii AB1901
experimental-protocol: MIC against clinical strain
Assay type: cell-based
experimental-conditions: Acinetobacter baumannii, AB1901, read-out: MIC, A. baumannii AB1901
Below is a list of entries, each paired with its recorded MIC value.
Give just the number in µM; leave the unit off.

compound="CC[C@H]1OC(=O)[C@H](C)[C@@H](O[C@H]2C[C@@](C)(OC)[C@@H](O)[C@H](C)O2)[C@H](C)[C@@H](O[C@@H]2O[C@H](C)C[C@H](N(C)C)[C@H]2O)[C@](C)(O)C[C@@H](C)C(=O)[C@H](C)[C@@H](O)[C@]1(C)O [Erythromycin]" unit_of_measurement=µM measured_value=64
compound="CN[C@H](CC(C)C)C(=O)N[C@H]1C(=O)N[C@@H](CC(N)=O)C(=O)N[C@H]2C(=O)N[C@H]3C(=O)N[C@H](C(=O)N[C@H](C(=O)O)c4cc(O)cc(O)c4-c4cc3ccc4O)[C@H](O)c3ccc(c(Cl)c3)Oc3cc2cc(c3O[C@@H]2O[C@H](CO)[C@@H](O)[C@H](O)[C@H]2O[C@H]2C[C@](C)(N)[C@H](O)[C@H](C)O2)Oc2ccc(cc2Cl)[C@H]1O [Vancomycin]" unit_of_measurement=µM measured_value=1
compound="CNC(C)C1CCC(N)C(OC2C(N)CC(N)C(OC3OCC(C)(O)C(NC)C3O)C2O)O1 (centres unmarked) [Gentamicin]" unit_of_measurement=µM measured_value=2
compound="CC1(C)S[C@@H]2[C@H](NC(=O)Cc3ccccc3)C(=O)N2[C@H]1C(=O)O [Penicillin sodium]" unit_of_measurement=µM measured_value=128

I am curious: what MIC value has been reported for CC(C)(O/N=C(\C(=O)N[C@@H]1C(=O)N2C(C(=O)[O-])=C(C[n+]3ccccc3)CS[C@H]12)c1csc(N)n1)C(=O)O [Ceftazidime] ? 8

----------
Test system: S. aureus 25923
Format: cell-based, Staphylococcus aureus
Experimental: The MIC values of the nano‐short peptides were determined according to standard protocols.^[ [63] ^] Bacterial strains were revived from cryopreservation and cultured in Mueller–Hinton broth (MHB) to logarithmic growth phase, then diluted to a final density of 0.5–1 × 10⁶ CFU mL^−1. […] Bacterial growth was assessed by measuring absorbance at 492 nm, with MHB alone (negative control) and untreated bacterial suspension (positive control) included for reference.
Non-standard residues stand in square brackets, D forms with d. Residues, ends and D or L forms follow the SMILES beside them. ξ: configuration not given here. 2Nal = N[C@@H](Cc1ccc2ccccc2c1)C(=O)O; ξAhp(2) = CCCCCC(N)C(=O)O
readout: MIC, S. aureus 25923 (µM)
Report the figure in µM without appending any unit label.

Use these answered entries as a reference point.
molecule="C[C@H](N)C(=O)N[C@@H](C)C(=O)N[C@@H](C)C(=O)N[C@@H](C)C(=O)N[C@@H](C)C(=O)N[C@H](CCCNC(=N)N)C(=O)N[C@@H](CCCNC(=N)N)C(=O)N[C@@H](CCCNC(=N)N)C(=O)N1CCC[C@H]1C(=O)O [Peptide A5] (H-AAAAA[dR]RRP-OH)" readout="MIC, S. aureus 25923" unit_of_measurement=µM measured_value=256
molecule="CCCCCC(N)C(=O)NC(CCCCC)C(=O)NC(CCCCC)C(=O)N[C@H](CCCNC(=N)N)C(=O)N[C@@H](CCCNC(=N)N)C(=O)N[C@@H](CCCNC(=N)N)C(=O)N1CCC[C@H]1C(=O)O (stereo partly shown) [Peptide B3] (H-[ξAhp(2)][ξAhp(2)][ξAhp(2)][dR]RRP-OH; N-terminus assumed)" readout="MIC, S. aureus 25923" unit_of_measurement=µM measured_value=256
molecule="N=C(N)NCCC[C@H](NC(=O)[C@H](Cc1ccc2ccccc2c1)NC(=O)[C@H](Cc1ccc2ccccc2c1)NC(=O)[C@@H](N)Cc1ccc2ccccc2c1)C(=O)N[C@H](CCCNC(=N)N)C(=O)N[C@@H](CCCNC(=N)N)C(=O)N1CCC[C@H]1C(=O)O [Peptide N3] (H-[2Nal][2Nal][2Nal]R[dR]RP-OH)" readout="MIC, S. aureus 25923" unit_of_measurement=µM measured_value=16

Proceed to the following item.
Given the entry N=C(N)NCCC[C@H](NC(=O)[C@H](Cc1ccc2ccccc2c1)NC(=O)[C@H](Cc1ccc2ccccc2c1)NC(=O)[C@H](Cc1ccc2ccccc2c1)NC(=O)[C@H](Cc1ccc2ccccc2c1)NC(=O)[C@@H](N)Cc1ccc2ccccc2c1)C(=O)N[C@H](CCCNC(=N)N)C(=O)N[C@@H](CCCNC(=N)N)C(=O)N1CCC[C@H]1C(=O)O [Peptide N5] (H-[2Nal][2Nal][2Nal][2Nal][2Nal]R[dR]RP-OH) , report its measured MIC, S. aureus 25923. 256
